Tested on: COLO 205
test-summary: NCI tumour cell line growth inhibition, 48 h
The source made the active and inactive calls. Rule as the data show it: active = GI50 up to about 1.1 µM and inactive = higher.
Some compounds, each annotated with its measured GI50.

Example entries begin here.
compound | GI50
Cc1nc(-c2nc(C)c(C(=O)NN(C)C)s2)sc1C(=O)NN(C)C | 21.7 µM (inactive)
COc1ccc(OC)c(C(Cc2ccnc3ccccc23)Cc2ccnc3ccccc23)c1 | 8.04 µM (inactive)
COC(=O)c1ccccc1CC(Cc1ccc2c(c1)CCC2)C(=O)OC (configuration not stated) | > 100 µM (inactive)
C=CCc1cc(OC)c2c(c1)C(OC)CC(c1ccc(OC)c(OC)c1)O2 (configuration not stated) | > 100 µM (inactive)

[Q] # input compound: `COc1cccc(-c2cc(=O)c3ccccc3o2)c1N` ; wanted: its GI50
[A] 9.93 µM (inactive)

[Q] Please give the result for CC(C)=C1CCC(CN2CCOCC2)C1=O (configuration not stated) too.
[A] 4.66 µM (inactive)

[Q] Same read-out for `CN(C)c1ccc(/C=C(/NC(=O)c2ccccc2)C(=O)Nc2ccccc2C(=O)O)cc1` ?
[A] > 100 µM (inactive)
